- target system: N-terminal Xaa-Pro-Lys N-methyltransferase 1 (Homo sapiens) (UniProt Q9BV86)
- Sequence (Q9BV86 whole entry, looked up): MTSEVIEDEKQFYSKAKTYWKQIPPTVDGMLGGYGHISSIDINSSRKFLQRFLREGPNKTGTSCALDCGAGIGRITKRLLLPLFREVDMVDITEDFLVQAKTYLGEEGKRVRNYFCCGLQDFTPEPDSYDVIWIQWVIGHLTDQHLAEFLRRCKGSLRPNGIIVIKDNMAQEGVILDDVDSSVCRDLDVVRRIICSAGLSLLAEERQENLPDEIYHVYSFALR
- run description: qHTS Assay for Inhibitors of N-terminal methyltransferase 1 (NTMT1): MTaseGlo Confirmatory Screen, Round 2
- assay context: NTMT1 enzyme, MTase-Glo SAH luminescence; series mostly up to 57.4 µM
Records with an inconclusive call do not appear. Active and inactive are the calls of the source. Calls come from the whole dose curve; as a rule, active = well fitted inhibition curve with a large enough effect; inconclusive = small, poorly fitted or top-dose-only effect; inactive = no such curve, though single readings can be large or run the other way.
// one of true (1) = active, false (0) = inactive, no free text

CCN1C(=O)C=CC1=O	false (0)
O=c1cc(-c2ccccc2)oc2c(O)c(O)ccc12	false (0)

Test call, this compound: N#C/C(=C\c1ccc(O)c(O)c1)C(=O)c1ccc(O)c(O)c1 false (0)

Test call, this compound: Nc1nc(Cl)nc2c1ncn2[C@@H]1O[C@H](CO)[C@@H](O)[C@@H]1F false (0)

Test call, this compound: Cc1nnc(SCC2=C(C(=O)O)N3C(=O)[C@@H](NC(=O)Cn4cnnn4)[C@H]3SC2)s1 false (0)

Test call, this compound: CSc1nc(N)c2ncn([C@@H]3O[C@H](COP(=O)(O)OP(=O)(O)O)C(O)[C@H]3O)c2n1 (stereo partly specified) true (1)

----------
- target system: N-terminal Xaa-Pro-Lys N-methyltransferase 1 (Homo sapiens)
- run description: qHTS Assay for Inhibitors of N-terminal methyltransferase 1 (NTMT1): MTaseGlo Confirmatory Screen, Round 2
- assay context: NTMT1 enzyme, MTase-Glo SAH luminescence; series mostly up to 57.4 µM
- Excerpt: Assay Submitter (PI): Rong Huang Ph.D, Purdue University, West Lafayette, IN 47907 The N-terminal methytransferase 1 is the first methyltransferase that methylates protein alpha-N-amines and plays an important role in regulating cell mitosis, chromatin interactions and DNA repair. […] To address this unmet need, a panel of assay is created and established to enable quantitative high-throughput screening (qHTS) for novel, potent, and selective small molecule NTMT1 inhibitors. […]
Records with an inconclusive call do not appear. Active and inactive are the calls of the source. Calls come from the whole dose curve; as a rule, active = well fitted inhibition curve with a large enough effect; inconclusive = small, poorly fitted or top-dose-only effect; inactive = no such curve, though single readings can be large or run the other way.
// one of Yes (active), No (inactive), no free text

Oc1ccc(Cn2cc[nH]c2=S)cc1	No

Test call, this compound: O=C1c2c(O)ccc(O)c2C(=O)c2c(NCCNCCO)ccc(NCCNCCO)c21 Yes

Test call, this compound: Cc1nn(-c2ccccc2)c(C)c1/C=N/N1CCN(Cc2ccccc2)CC1 No

Test call, this compound: CN=c1nc(-c2ccccc2)n(-c2ccccc2)s1 Yes

Test call, this compound: O=C1NC(=O)C(=Cc2ccc(-c3ccc(F)cc3O)o2)S1 Yes

Test call, this compound: CC(C)=CCNc1ncnc2c1ncn2[C@@H]1O[C@H](CO)[C@@H](O)[C@H]1O No

Test call, this compound: C=CCN1CCc2c(cc(O)c(O)c2Cl)C(c2ccccc2)C1 (stereo unspecified) No

Test call, this compound: CN(C)CCCN1c2ccccc2Sc2ccc(C(F)(F)F)cc21 No

Test call, this compound: Nc1ncnc2c1[nH]c(=S)n2C1OC(CO)C(O)C1O (stereo unspecified) No

Test call, this compound: NS(=O)(=O)c1cccc2c1c([N+](=O)[O-])cc1nc(O)c(O)nc12 No

Test call, this compound: CCOC(=O)c1cnc2c(cnn2CC)c1NN=C(C)C No

----------
- target system: N-terminal Xaa-Pro-Lys N-methyltransferase 1 (Homo sapiens) (UniProt Q9BV86)
- run description: qHTS Assay for Inhibitors of N-terminal methyltransferase 1 (NTMT1): MTaseGlo Confirmatory Screen, Round 2
- assay context: NTMT1 enzyme, MTase-Glo SAH luminescence; series mostly up to 57.4 µM
Results filed as inconclusive are left out. Active and inactive are the calls of the source. Calls follow the shape of the dose curve; as a rule, active = well fitted inhibition curve with a large enough effect; inconclusive = small, poorly fitted or top-dose-only effect; inactive = no such curve, though single readings can be large or run the other way.
// one of active, inactive, no free text

Worked set:
CN(C)CCCc1cc(C(=O)Nc2ccc(-c3ccncc3)cc2)ccc1O	inactive
Oc1cc2c(cc1O)CN(C(=S)NCCc1ccc(Cl)cc1)CCC2	inactive
Cc1[nH]c(=O)c(C#N)cc1-c1ccc2nccn2c1	inactive
CC[n+]1c(/C=C/C=C2/N(C)c3ccccc3C2(C)C)sc2ccccc21	active
NC[C@@H]1O[C@H](c2ccccc2)Cc2c1ccc(O)c2O	inactive

Test call, this compound: CN(C)CCCN1c2ccccc2Sc2ccccc21 inactive

Test call, this compound: O=[N+]([O-])c1ccc2c(c1)S(=O)(=O)C=C2 inactive

Test call, this compound: Cc1cc2c(cc1Cl)N(C(=O)Nc1ccc(Oc3cccnc3C)nc1)CC2 inactive

Test call, this compound: Oc1cc(O)c2c(c1)O[C@H](c1ccc(O)c(O)c1)[C@@H](O)C2 inactive

Test call, this compound: OCCNc1ncnc2c1ncn2[C@@H]1O[C@@H](CO)[C@H](O)[C@@H]1O inactive

Test call, this compound: Nc1nc(Cl)nc2c1ncn2[C@@H]1O[C@H](CO)[C@@H](O)[C@H]1O inactive

----------
- target system: N-terminal Xaa-Pro-Lys N-methyltransferase 1 (Homo sapiens) (UniProt Q9BV86); note: potency is the fitted concentration of half-maximal effect
- run description: qHTS Assay for Inhibitors of N-terminal methyltransferase 1 (NTMT1): MTaseGlo Confirmatory Screen, Round 2
- assay context: NTMT1 enzyme, MTase-Glo SAH luminescence; series mostly up to 57.4 µM
Inconclusive results are not listed. Active and inactive are the calls of the source. The call rests on the fitted dose curve; in most records, active means well fitted inhibition curve with a large enough effect; inconclusive means small, poorly fitted or top-dose-only effect; inactive means no such curve, though single readings can be large or run the other way.
quantity name: Potency

Reference set, count: 4
CCN(CC)C(=S)SSC(=S)N(CC)CC	inactive
Clc1ccc(N2CCN(Cc3c[nH]c4ncccc34)CC2)cc1	inactive
Cc1ccc(O)c(N=Nc2ccccc2)n1	14.1 µM (active)
CCCCCCCCCCCCCCCCCC(=O)OC(CC(=O)O)C[N+](C)(C)C (stereo not given)	inactive

Give the reported Potency for N[C@@H](Cc1ccc(O)c(O)c1)C(=O)O (system: N-terminal Xaa-Pro-Lys N-methyltransferase 1 (Homo sapiens) (UniProt Q9BV86)). inactive

All values here come from PubChem BioAssay AID1347147.
